Where do these numbers come from? They come from ChEMBL document CHEMBL1153872.

System: Mus musculus
Experimental details: Analgesic activity in albino mouse assessed as response latency time to pain stimulus at 25 mg/kg, po after 3 hrs by hot plate method
Type: functional
Set-up: unit not given here
Listing of recorded Time by entry.
Lab note: write the figure by itself, no unit.

// below: answered compounds
• Fc1cc(-c2nc3scc(-c4cc(F)c(Cl)cc4Cl)n3n2)c(Cl)cc1Cl = 13.6
• Fc1ccc(-c2csc3nc(-c4cc(F)c(Cl)cc4Cl)nn23)cc1 = 8.2
• COc1ccc(-c2csc3nc(-c4cc(F)c(Cl)cc4Cl)nn23)cc1 = 11.96

Query: // query Time value for entry Cc1ccc(-c2csc3nc(-c4cc(F)c(Cl)cc4Cl)nn23)cc1
Response: 8.4

Query: Same thing, different compound: Fc1cc(-c2nc3scc(-c4ccc(Cl)cc4Cl)n3n2)c(Cl)cc1Cl
Response: 9.6
